Cynomolgus Primary Hepatocytes-% Editing overview
Tested on: PCSK9 gene
protocolText: PCSK9 gRNA/SpCas9 editing in primary cynomolgus hepatocytes (Tables 2, 22)
Format: cell-based, cynomolgus monkey
particulars: SpCas9 mRNA MS002, 1250 ng/test article/mL, rep1
In the oligonucleotide strings, read from the 5' end, every base follows the letter of its sugar. An asterisk marks phosphorothioate; unmarked linkages are phosphodiester. Other units and linkages are bracketed, terminal groups are in braces. A string of capitals states the bases alone. m = 2'-O-methyl; r = 2'-OH (RNA)
Unit % implied. Number only.

GA404 (nucleic acid) guide: mU*mC*mA*rGrCrUrCrCrArGrGrCrGrGrUrCrCrUrGrGmGrUrUrUrUrArGmAmGmCmUmArGmAmAmAmUmAmGmCmAmArGrUrUmArAmArAmUrAmAmGmGmCmUmArGrUmCmCrGrUrU*rAmUmCrArAmCmUmUrGmAmAmAmAmAmGmUmGrGmCmAmCmCmGmAmGmUmCmGmGmUmGmCmU*mU*mU*mUmUrUmU    41.68

Let's switch to this molecule now.
Item under review: GA396 (nucleic acid) guide: mU*mC*mA*rGrCrUrCrCrArGrGrCrGrGrUrCrCrUrGrGmGrUrUrUrUrArGmAmGmCmUmArGmAmAmAmUmAmGmCmAmArGrUrU*mArAmArAmUrAmAmGmGmCmUmArGrUmCmCrGrUrUrAmUmCrArAmCmUmUrGmAmAmAmAmAmGmUmGrGmCmAmCmCmGmAmGmUmCmGmGmUmGmCmU*mU*mU*mUmUmUmU . Reported Cynomolgus Primary Hepatocytes-% Editing?
56.02

The reported numbers originate from patent US20250152746A1.
